System: Telomerase reverse transcriptase (Homo sapiens, UniProt O14746) | Read-out: IC50 | Origin: multiple publications
Sequence (O14746 whole entry): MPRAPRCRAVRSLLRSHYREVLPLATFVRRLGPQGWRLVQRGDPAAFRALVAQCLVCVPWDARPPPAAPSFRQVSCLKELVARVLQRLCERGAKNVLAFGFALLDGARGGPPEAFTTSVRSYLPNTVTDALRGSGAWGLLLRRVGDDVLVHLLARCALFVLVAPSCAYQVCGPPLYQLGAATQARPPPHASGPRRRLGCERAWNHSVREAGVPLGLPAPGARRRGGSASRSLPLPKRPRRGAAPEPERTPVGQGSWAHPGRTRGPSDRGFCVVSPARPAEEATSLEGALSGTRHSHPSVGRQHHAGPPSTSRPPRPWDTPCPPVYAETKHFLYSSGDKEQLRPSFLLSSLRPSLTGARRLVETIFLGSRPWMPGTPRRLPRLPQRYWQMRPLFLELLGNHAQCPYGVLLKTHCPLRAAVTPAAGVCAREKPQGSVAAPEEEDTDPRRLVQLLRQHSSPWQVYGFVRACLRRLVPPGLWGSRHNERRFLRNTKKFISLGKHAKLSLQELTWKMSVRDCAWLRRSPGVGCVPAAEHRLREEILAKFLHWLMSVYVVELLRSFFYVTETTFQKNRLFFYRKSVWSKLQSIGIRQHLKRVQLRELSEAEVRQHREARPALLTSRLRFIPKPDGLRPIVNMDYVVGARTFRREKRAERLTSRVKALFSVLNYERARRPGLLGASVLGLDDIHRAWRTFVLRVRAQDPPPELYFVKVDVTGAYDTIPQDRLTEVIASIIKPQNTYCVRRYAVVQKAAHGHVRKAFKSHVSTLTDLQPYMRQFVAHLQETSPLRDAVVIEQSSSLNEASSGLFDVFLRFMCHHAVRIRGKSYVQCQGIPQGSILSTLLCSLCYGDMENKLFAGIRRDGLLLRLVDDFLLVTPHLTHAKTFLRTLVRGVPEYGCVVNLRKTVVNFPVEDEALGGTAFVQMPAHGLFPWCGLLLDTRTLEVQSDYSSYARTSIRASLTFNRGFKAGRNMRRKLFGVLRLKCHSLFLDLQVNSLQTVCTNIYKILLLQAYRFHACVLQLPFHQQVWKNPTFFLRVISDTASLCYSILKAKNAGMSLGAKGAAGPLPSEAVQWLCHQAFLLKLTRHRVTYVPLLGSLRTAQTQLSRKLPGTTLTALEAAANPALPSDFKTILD
Measured Attribute: IC50 (µM)

> print(dat)
                                    molecule  value.prefix  endpoint.result
 1  Cc1cn(CCCn2cc(CC(=O)NCCCCCCCCCCCC(=O)O)c3ccccc32)c2ccccc12             =               20
 2         O=Cc1cccc(C(=O)Sc2cc(Cl)ccc2Cl)n1             =               68
 3     CN1c2ccccc2-c2c3c1cccc3c1ccccc1[n+]2C             =             0.38
 4  CSc1nc(Nc2ccc(C#N)cc2)nc(Nc2ccc3nc(C)cc(N)c3c2)n1             =              3.4
 5  O=C(O)CCCCCCCCCCCNC(=O)Cc1cn(CCn2ccc3ccccc32)c2ccccc12             =               41
 6  CC1CC[N+](C)(CCC(=O)Nc2ccc3c(c2)C(=O)c2cc(NC(=O)CC[N+]4(C)CCC(C)CC4)ccc2-3)CC1 (configuration not stated)             >               20
 7  Cc1cc(N)c2cc(Nc3nc(Nc4ccc5c(c4)c(N)cc(C)[n+]5C)nc(N(C)C)n3)ccc2[n+]1C             =             0.22
 8  CN(C)CCCNCc1ccc2nc3ccc4cc5cc(CNCCCN(C)C)ccc5nc4c3cc2c1             =            0.028
 9     O=Cc1cccc(C(=O)Sc2c(Cl)cc(Cl)cc2Cl)n1             =               50
10  C[N+]1(CCC(=O)Nc2ccc3c(c2)C(=O)c2cc(NC(=O)CC[N+]4(C)CCCCC4CCO)ccc2-3)CCCCC1CCO (configuration not stated)             >               20
11             O=Cc1cccc(C(=O)Sc2ccccc2Cl)n1             =               84
12  O=C(CCN1CCC(O)CC1)Nc1ccc2c(c1)C(=O)c1cc(NC(=O)CCN3CCC(O)CC3)ccc1-2             =             18.5
